# target_desc: MPV fusion glycoprotein without the D280N mutation (MPV-F D280) (metapneumovirus)
# experiment_description: SPR; F protein loaded on streptavidin sensors, mAb in solution
pKd: −log10 of the molar value.
Each item that follows carries a reported pKd.

>  <binder>
MPK130 (antibody, V domains shown) VH: EVQLVESGGGLVKPGGSLTLSCEASGFSISGYYMIWVRQAPGKGLEWVSSISASDTYIDYAVSVQGRFTISRHNTKNSLYLQMSSLRVEDTGVYYCTREKVPSPGPFDCWGQGTLVTVSS VL: QSVLTQPPSVSGAPGQRITISCTGTSSNIGAGYDVHWYQHLPGAAPRLLIYVNTNRPSGVPDRFSGARSGTSASLAITGLQAEDEADYYCQSYDRSLGGWAFGEGTKVTVL

>  <pKd>
10.74

$$$$
>  <binder>
MPK144 (antibody, V domains shown) VH: EVQLVESGGGLVRPGGSLRLSCAASGFTFTGYYMMWIRQAPGKGLEWISDISSSSSYTNYADSVKGRFAISRDNAQNTLYLQMNSLRAEDTAVYYCATEQVPSPGPFDLWGQGTLVTVSS VL: QSVLTQPPSVSGAPGQRVTISCTGSSSNFGAGYDVHWYQQFPGTSPKLLIYRNTNRPSGVPDRFSGSKSGTSASLAITGLQAEDEADYYCQSYDRSLTGWVFGGGTKLTVL

>  <pKd>
9.09

$$$$
>  <binder>
MPK132-v1 (antibody, V domains shown) VH: EVQLVESGGGLVKPGGSLRLSCEASGISLSGYYMIWIRQAPGKGLEWISSISSSSNYIDYADSVKGRFTISRHNGQNTLYLQMNSLRVEDTAVYFCATEQTPSPGPFELWGQGILVTVSS VL: QSVVTQPPSVSGAPGQRVTIFCTGTSSNIGTGYDVHWYQQFPGTSPKLLIYRNTNRPSGVPDRFSGSKSGSSASLAIAGLQAEDEADYYCQSYDRSVSGWVFGGGTKLTVL

>  <pKd>
12.00

$$$$
>  <binder>
MPK146 (antibody, V domains shown) VH: QVQLVESGGGLVKPGGSLRLSCAASGFTFSGYYMIWIRQAPGKGLEWIASISGSSNYIDYADSVRGRFTISRDNARNILDLQMNSLRAGDTALYYCATEQVPSPGPFDLWGQGTLVTVSS VL: QSVLTQPPSVSGAPGQRVTISCTGSNSNLGAGYDVHWYQQFPGTSPKLLIYRNTNRPSGVPDRFAGSKSGTSASLAITGLQAEDEADYYCQSYDRSLSGWVFGGGTKLTVL

>  <pKd>
12.00

$$$$
>  <binder>
MPK153 (antibody, V domains shown) VH: EVHLVESGGGLVKPGGSLRLSCAASGFTFTGYFMIWIRQAPGKGLEWISYISSSSNYINYADSVKGRFTISRDNGQNTLYLQMNSLRPDDTAVYYCATEQVPSPGPFDLWGQGTLVTVSS VL: QSVLTQPPSVSGAPGQRVIISCTGTSSNIGAGYDVHWYQQFPGASPKLLIFRNTDRPSGVPDRFSGSKSGSSASLAIAGLQAEDEADYYCQSYDRSLDGWVFGGGTKVTVL

>  <pKd>
12.00

$$$$
